Values compiled from paper PMC9352680.

Kindly supply the reported Kd values for the records listed here.
Molecular target: T1, PUF4 RNA-binding domain (Saccharomyces cerevisiae, UniProt P25339 537-888)
T1 sequence: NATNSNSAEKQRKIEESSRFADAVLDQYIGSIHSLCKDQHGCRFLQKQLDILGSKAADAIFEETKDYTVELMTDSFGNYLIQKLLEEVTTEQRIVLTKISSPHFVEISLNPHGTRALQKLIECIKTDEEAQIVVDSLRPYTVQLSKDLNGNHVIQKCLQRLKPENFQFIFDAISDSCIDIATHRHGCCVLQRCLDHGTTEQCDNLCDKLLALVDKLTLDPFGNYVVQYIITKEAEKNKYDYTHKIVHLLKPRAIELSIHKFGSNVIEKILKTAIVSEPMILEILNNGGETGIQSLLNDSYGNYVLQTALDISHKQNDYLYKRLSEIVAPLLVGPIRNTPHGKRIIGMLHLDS
Test: Mg; RNA-MaP; 20 mM Na-HEPES pH 7.4, 30 mM KOAc, 0.75 mM MgCl2, 0.1% Tween-20, 5% glycerol, 0.1 mg/mL BSA, 2 mM DTT; 25 C; 0.0125-409.6 nM protein
Details: tags: N-His6-TEV cleaved; C-SNAP kept, Cy3B-labelled; label: tethered on chip by stalled RNA polymerase
Give bare numbers, in nM.

binder	Kd / nM
UCUCUUGCACACUAUUAAAUCUCUU (ssRNA) [Id_ii_S1_P4E.4_K4.3_C4.2_[C-2G]_[T-1C]_H4.3_A4.1_F4.1_T4.2_[G10A]_[T11A]]	131
Ie_S4_P4E.1_K4.1_C4.1_H4.1_A4.1_[+5TTCC]_F4.1_T4.1 (ssRNA) RNA: UUUGACAACUGAUCGUUCUUUCUUGUAUUUCCAUUAUUCUUUCUCGAUCAGUUGUCUUU	54
UCUCUUUGUAUGGUAAUCUCUU (ssRNA) [Ic_S1_P5E.1_K5.1_C5.1_H5.1_A5.1_[T6G]_[A7G]_F5.1_[T9A]_T5.1]	32.1
UCUCUUUGUAAGUAUAUCUCUU (ssRNA) [Ic_S1_P5E.1_K5.1_C5.1_H5.1_A5.1_[T5A]_[T6G]_[A7T]_F5.1_[T8A]_T5.1]	95
Id_ii_S2_P4E.3_K4.2_C4.2_[T-1C]_H4.2_A4.1_F4.1_T4.2_[G10C]_[T11G] (ssRNA) RNA: UUUGAUUAAUAUGAUAUCGUUCUUUCUCCUAUAUAUUACGUUCUUUCUCGAUAUCAUAUUAAUCUUU	9.56

Batch lookup, Kd per entry.
1. Ic_S2_P5E.1_K5.1_C5.1_H5.1_A5.1_[T5C]_[T6C]_[A7T]_F5.1_[T8A]_[A10T]_T5.1 (ssRNA) RNA: UUUGAUUAAUAUGAUAUCGUUCUUUCUUGUACCUAUUUUCUUUCUCGAUAUCAUAUUAAUCUUU
2. UCUCUUUGUAUGUUAUCUCUU (ssRNA) [Ic_S1_P4E.1_K4.1_C4.1_H4.1_A4.1_[A6G]_F4.1_T4.1]
3. UCUCUUUGUAAAAUUAUCUCUU (ssRNA) [Ib_S1_P5E.1_K5.1_C5.1_H5.1_A5.1_[T5A]_[T6A]_F5.1_T5.1]
4. UCUCUUUGUACGUCUGUCUCUU (ssRNA) [Ic_S1_P5E.1_K5.1_C5.1_H5.1_A5.1_[T5C]_[T6G]_[A7T]_F5.1_[T8C]_[A10G]_T5.1]
5. UCUCUUUCUUAUAUUAUUAUCUCUCUU (ssRNA) [Id_iii_S1_P5E.6_K5.2_C5.3_H5.2_A5.1_F5.1_T5.2_[A12C]]
6. UCUCUUUGUAAUAACUCUCUU (ssRNA) [Ic_S1_P4E.1_K4.1_C4.1_H4.1_A4.1_[T5A]_[A6T]_[T7A]_F4.1_[T8A]_[A9C]_T4.1]

[A]
9.6
4.82
10.6
697
471
642

[Q] So what's the measured Kd for this one? Ic_S4_P3E.1_K3.1_C3.1_H3.1_A3.1_[T5G]_[A6C]_F3.1_[T7C]_T3.1 (ssRNA) RNA: UUUGACAACUGAUCGUUCUUUCUUGUAGCCAUUCUUUCUCGAUCAGUUGUCUUU
[A] 616
